- protocol.text: Cytotoxicity against human colon cancer cells after 48 hrs by SRB assay
- Type: functional
- test.context: Cancer cell lines
measurement.label: GI50 (µM)
Answers are plain numbers, in µM.

The following compounds have reported results that may help.
{"columns": ["compound", "GI50, µM"],
 "data": [
  ["O=C1N=C(N2N=C(c3ccc4ccccc4c3)CC2c2ccc(Cl)cc2)S/C1=C1/C(=O)Nc2ccccc21 (configuration not stated)", 0.53],
  ["CN(C)c1ccc(C2CC(c3ccccc3)=NN2C2=NC(=O)/C(=C3\\C(=O)Nc4ccc(Cl)cc43)S2)cc1 (configuration not stated)", 0.19],
  ["O=C1N=C(N2N=C(c3ccccc3)CC2c2ccccc2O)S/C1=C1/C(=O)Nc2ccc(Br)cc21 (configuration not stated)", 0.21]
]}

Record GI50 for all entries; do not skip any.
1. CN(C)c1ccc(C2CC(c3ccccc3)=NN2C2=NC(=O)/C(=C3\C(=O)Nc4ccccc43)S2)cc1 (configuration not stated)
2. O=C1N=C(N2N=C(c3ccccc3)CC2c2ccc(Cl)cc2)S/C1=C1/C(=O)Nc2ccccc21 (configuration not stated)
3. O=C1Nc2ccc(Br)cc2C1n1nc(-c2ccc3ccccc3c2)cc1-c1ccc(Cl)cc1 (configuration not stated)
4. COc1ccc(C2=NN(C3=NC(=O)/C(=C4\C(=O)Nc5ccc(Br)cc54)S3)C(c3ccc(Cl)cc3)C2)cc1 (configuration not stated)
5. COc1ccc(C2CC(c3ccc4ccccc4c3)=NN2C2=NC(=O)/C(=C3\C(=O)Nc4ccc(Br)cc43)S2)cc1 (configuration not stated)

1: 2.55; 2: 0.19; 3: 4.33; 4: 0.13; 5: 0.05

Dear colleague, could you send me GI50 for each of the items below? Thanks.
1. COc1ccc(C2=NN(C3=NC(=O)/C(=C4\C(=O)Nc5ccc(Cl)cc54)S3)C(c3ccc(Cl)cc3)C2)cc1 (configuration not stated)
2. COc1ccc(C2CC(c3ccc4ccccc4c3)=NN2C2=NC(=O)/C(=C3\C(=O)Nc4ccccc43)S2)cc1 (configuration not stated)
3. COc1ccc(-c2cc(-c3ccc(Cl)cc3)n(C3C(=O)Nc4ccc(Br)cc43)n2)cc1 (configuration not stated)
4. COc1ccc(C2=NN(C3=NC(=O)/C(=C4\C(=O)Nc5ccccc54)S3)C(c3ccc(Cl)cc3)C2)cc1 (configuration not stated)

1: 0.21; 2: 1.68; 3: 7.2; 4: 100

Quick one: give me GI50 for each item below, same order please.
1. COc1ccc(-c2cc(-c3ccc(Cl)cc3)n(C3C(=O)Nc4ccc(Cl)cc43)n2)cc1 (configuration not stated)
2. CN(C)c1ccc(C2CC(c3ccccc3)=NN2C2=NC(=O)/C(=C3\C(=O)Nc4ccc(Br)cc43)S2)cc1 (configuration not stated)
3. COc1ccc(C2=NN(C3=NC(=O)/C(=C4\C(=O)Nc5ccc(Br)cc54)S3)C(c3ccc(OC)cc3)C2)cc1 (configuration not stated)
4. COc1ccc(C2=NN(C3=NC(=O)/C(=C4\C(=O)Nc5ccc(Cl)cc54)S3)C(c3ccc(OC)cc3)C2)cc1 (configuration not stated)
5. COc1ccc(C2CC(c3ccccc3)=NN2C2=NC(=O)/C(=C3\C(=O)Nc4ccc(Br)cc43)S2)cc1 (configuration not stated)

1. 6.15
2. 0.2
3. 0.2
4. 0.21
5. 0.19

Here are 5 compounds. What values of GI50 were reported for them?
1. Cc1ccc2c(c1)/C(=C1\SC(N3N=C(c4ccccc4)CC3c3ccc(Cl)cc3)=NC1=O)C(=O)N2 (configuration not stated)
2. COc1ccc(C2CC(c3ccccc3)=NN2C2=NC(=O)/C(=C3\C(=O)Nc4ccccc43)S2)cc1 (configuration not stated)
3. COc1ccc(C2=NN(C3=NC(=O)/C(=C4\C(=O)Nc5ccccc54)S3)C(c3ccc(OC)cc3)C2)cc1 (configuration not stated)
4. CN(C)c1ccc(-c2cc(-c3ccccc3)nn2C2C(=O)Nc3ccccc32)cc1 (configuration not stated)
5. O=C1N=C(N2N=C(c3ccccc3)CC2c2ccccc2O)S/C1=C1/C(=O)Nc2ccccc21 (configuration not stated)

1. 0.23
2. 1.81
3. 100
4. 16.1
5. 1.99
